- TEST PROTOCOL: JC-1 mitochondrial signal, unstimulated HepG2 cells – cell-based, JC-1 fluorescence, 24 h, 100 nL compound, profiling panel (AID 1167); note: test concentration not given here
- MEASUREMENT CONTEXT: HepG2 mitochondrial potential, higher = more signal
Tag: Y if measured z-score is not below 1, N if it is.

N#Cc1ccc(NN2C(C(O)c3ccc(Br)cc3)C=CC3C(=O)N(c4ccccc4)C(=O)C32)cc1 (stereo not drawn) : N
CCCCCCc1nc(Cc2cc(OC)c(OC)c(OC)c2)cc2c1[Si](C(C)C)(C(C)C)OC2 : N
CC1CC/C=C\[C@H]2OC34C=CCN(C(C)C)C(=O)[C@H]3N(CCO)C(=O)[C@@H]4C2C(=O)O1 (stereo partly drawn) : N
CCCNC(=O)[C@@H]1c2ccccc2C(=O)N(Cc2ccc(OC(F)(F)F)cc2)[C@H]1c1ccc(CO)cc1 : Y

Answer whether z-score of O=C1CS(=O)(=O)C(c2cccc([N+](=O)[O-])c2)N1c1ccccc1 (stereo not drawn) is greater than or equal to 1. Y

Answer whether z-score of COc1ccc([Si](C)(C)[C@@H]2[C@@H](CC(=O)N3Cc4ccccc4C[C@H]3CO)O[C@]3(C(=O)N(Cc4ccc(N5C(=O)c6cccc7cccc5c67)cc4)c4ccccc43)[C@H]2C)cc1 is greater than or equal to 1. Y

Answer whether z-score of CCOC(=O)C[C@H]1[C@H](OC(=O)c2cc3ccccc3oc2=O)[C@@H](NC(=O)c2ccc3ccccc3n2)c2cc(OCCCO)ccc2N1C(=O)Cc1ccc(OC)cc1 is greater than or equal to 1. N

Answer whether z-score of CC1CC/C=C\[C@H]2OC34C=CCN(c5ccc(Cl)cc5)C(=O)[C@H]3N(C(C)CO)C(=O)[C@]4(C)C2C(=O)O1 (stereo partly drawn) is greater than or equal to 1. N

* * *

- STUDY SYSTEM: Neurogenic locus notch homolog protein 3 (Homo sapiens)
- TEST PROTOCOL: small molecules binding NOTCH3 protein – biochemical, 635/667 nm fluorescence, primary screen (AID 1096)
- MEASUREMENT CONTEXT: small-molecule microarray, 635 nm fluorescence, higher = more signal
Classify on composite z-score using bottom (below -0.02), middle (-0.02 to below 0.2), top (0.2 or more)

Class label required: Cc1ccccc1C(O)C1C=CC2C(=O)NC(=O)C2N1Nc1ccccn1 (stereo not given) bottom

Class label required: CCCNC(=O)[C@@H]1c2ccccc2C(=O)N(Cc2ccc(OC(F)(F)F)cc2)[C@H]1c1ccc(CO)cc1 middle

Class label required: NC(=O)[C@@]1(Cc2ccccc2)COC(c2ccc(OCCCO)cc2)=N1 bottom

Class label required: CC(C)N1C(=O)C[C@@](C(=O)O)(c2ccc([N+](=O)[O-])cc2)[C@H]1c1ccc(CO)cc1 middle

Class label required: CCCCN1CC=CC23O[C@@H]4/C=C\CCCOC(=O)C4[C@H]2C(=O)N(CCO)[C@@H]3C1=O (stereo not given in full) bottom

Class label required: COc1ccc([Si](C)(C)[C@@H]2[C@@H](CCO)O[C@]3(C(=O)N(Cc4cccc(NC(=O)[C@H](C)O)c4)c4ccccc43)[C@H]2C)cc1 top

Class label required: COc1ccc([Si](C)(C)[C@H]2[C@H](CC(=O)N3Cc4ccccc4C[C@H]3CO)O[C@@]3(C(=O)N(Cc4ccc(N5CCOC5=O)cc4)c4ccccc43)[C@@H]2C)cc1 top
